These entries and their values trace back to patent US9579314B2.

I'd appreciate it if you could supply IC50 values for the items below.
# EXPERIMENTAL SYSTEM: Human M3 receptor (Homo sapiens, UniProt P20309)
# Sequence (P20309 whole entry): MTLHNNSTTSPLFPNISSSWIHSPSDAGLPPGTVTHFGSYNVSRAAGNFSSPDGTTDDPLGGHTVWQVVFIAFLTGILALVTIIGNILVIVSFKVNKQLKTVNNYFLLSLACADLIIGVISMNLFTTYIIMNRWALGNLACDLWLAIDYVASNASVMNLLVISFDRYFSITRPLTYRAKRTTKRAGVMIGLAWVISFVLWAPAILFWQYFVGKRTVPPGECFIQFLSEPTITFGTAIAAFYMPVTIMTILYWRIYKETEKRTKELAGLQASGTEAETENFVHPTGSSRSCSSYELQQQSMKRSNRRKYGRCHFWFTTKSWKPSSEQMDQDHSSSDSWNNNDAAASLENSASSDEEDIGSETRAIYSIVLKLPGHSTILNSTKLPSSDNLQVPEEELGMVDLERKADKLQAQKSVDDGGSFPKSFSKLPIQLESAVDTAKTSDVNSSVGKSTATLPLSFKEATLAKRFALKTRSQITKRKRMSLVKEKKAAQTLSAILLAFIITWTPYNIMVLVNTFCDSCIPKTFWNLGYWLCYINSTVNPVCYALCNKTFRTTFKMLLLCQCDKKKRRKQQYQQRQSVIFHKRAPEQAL
# STATED CONDITIONS: read-out: M3 binding affinity

Which IC50 is reported for this compound? O=C(COc1cccc([C@](O)(C(=O)OCC2CCN(Cc3ccccc3)CC2)c2ccccc2)c1)N1CC(C(=O)N2CCC(CNC[C@H](O)c3ccc(O)c4[nH]c(=O)ccc34)CC2)C1 0.3 to 3 nM

Which IC50 is reported for this compound? O=C(NCCc1cccc(C(O)(C(=O)OCC2CCN(Cc3ccccc3)CC2)c2ccccc2)c1)c1ccc(CNCC(O)c2ccc(O)c3[nH]c(=O)ccc23)cc1 (stereo in doubt) 0.3 to 3 nM

Which IC50 is reported for this compound? O=C(c1ccc(COc2cccc([C@](O)(C(=O)OCC3CCN(Cc4ccccc4)CC3)c3ccccc3)c2)cc1)N1CCC2(CC1)CN(C(=O)c1ccc(CCNC[C@H](O)c3ccc(O)c4[nH]c(=O)ccc34)cc1)C2 < 0.3 nM

Which IC50 is reported for this compound? O=C(NCCCOc1cccc([C@](O)(C(=O)OCC2CCN(Cc3ccccc3)CC2)c2ccccc2)c1)c1ccc(CNC[C@H](O)c2ccc(O)c3[nH]c(=O)ccc23)cc1Cl [Compound 32H] 0.3 to 3 nM

====

# EXPERIMENTAL SYSTEM: Human β2 adrenoceptor (Homo sapiens, UniProt P07550)
# Sequence (P07550 whole entry): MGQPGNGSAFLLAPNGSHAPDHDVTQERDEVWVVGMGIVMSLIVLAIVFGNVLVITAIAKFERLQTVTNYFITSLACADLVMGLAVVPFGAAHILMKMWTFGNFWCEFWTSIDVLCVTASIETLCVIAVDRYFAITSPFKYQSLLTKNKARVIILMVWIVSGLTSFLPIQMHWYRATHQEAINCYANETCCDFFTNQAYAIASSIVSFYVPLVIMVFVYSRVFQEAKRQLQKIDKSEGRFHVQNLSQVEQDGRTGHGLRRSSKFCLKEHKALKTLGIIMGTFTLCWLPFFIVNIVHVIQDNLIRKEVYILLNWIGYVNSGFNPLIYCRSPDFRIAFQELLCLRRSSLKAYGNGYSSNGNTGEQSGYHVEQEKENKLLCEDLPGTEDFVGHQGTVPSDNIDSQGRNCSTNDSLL
I'd appreciate it if you could supply IC50 values for the items below.

Which IC50 is reported for this compound? CCc1cccc(C(O)(C(=O)OCC2CCN(Cc3ccccc3)CC2)c2cccc(OCCCCCNC[C@H](O)c3ccc(O)c4[nH]c(=O)ccc34)c2)c1 (stereo partly drawn) < 0.3 nM

Which IC50 is reported for this compound? O=C(c1ccc(CCNC[C@H](O)c2ccc(O)c3[nH]c(=O)ccc23)cc1)N1CCC2(CC1)CCN(C(=O)c1ccc(COc3cccc([C@](O)(C(=O)OCC4CCN(Cc5ccccc5)CC4)c4ccccc4)c3)cc1)CC2 0.3 to 3 nM

Which IC50 is reported for this compound? O=C(NC1CN(C(=O)COc2cccc([C@](O)(C(=O)OCC3CCN(Cc4ccccc4)CC3)c3ccccc3)c2)C1)c1ccc(CNC[C@H](O)c2ccc(O)c3[nH]c(=O)ccc23)cc1 < 0.3 nM

====

pIC50: −log10 of the molar value.
ENDPOINT NAME: pIC50

Please state recorded pIC50 (tested on Human M3 receptor (Homo sapiens)) of COc1cc(C(=O)N[C@H]2C[C@H](NC(=O)COc3cccc([C@](O)(C(=O)OCC4CCN(Cc5ccccc5)CC4)c4ccccc4)c3)C2)c(F)cc1CNC[C@H](O)c1ccc(O)c2[nH]c(=O)ccc12 [Compound 142] 8.52 to 9.52

Please state recorded pIC50 (tested on Human M3 receptor (Homo sapiens)) of CCc1ccccc1C(O)(C(=O)OCC1CCN(Cc2ccccc2)CC1)c1cccc(OCCCCCNC[C@H](O)c2ccc(O)c3[nH]c(=O)ccc23)c1 (some centres unmarked) [Compound 8] < 8.52

Please state recorded pIC50 (tested on Human M3 receptor (Homo sapiens)) of O=C(OCC1CCN(Cc2ccccc2)CC1)[C@](O)(c1ccccc1)c1cccc(OCCCCCCNCC(O)c2ccc(O)c3[nH]c(=O)ccc23)c1 (stereo in doubt) [Compound 29] > 9.52

Please state recorded pIC50 (tested on Human M3 receptor (Homo sapiens)) of O=C(COc1cccc([C@](O)(C(=O)OCC2CCN(Cc3ccccc3)CC2)c2ccccc2)c1)N[C@H]1CC[C@H](NC(=O)c2ccc(CCNC[C@H](O)c3ccc(O)c4[nH]c(=O)ccc34)cc2)CC1 [Compound 90] 8.52 to 9.52

Please state recorded pIC50 (tested on Human M3 receptor (Homo sapiens)) of O=C(OCC1CCN(Cc2ccccc2)CC1)[C@](O)(c1ccccc1)c1cccc(OCCCCCCCNC[C@H](O)c2ccc(O)c3[nH]c(=O)ccc23)c1 [Compound 28] 8.52 to 9.52

====

Form: system (Human β2 adrenoceptor (Homo sapiens)), quantity (IC50), values below.

Which IC50 is reported for this compound? O=C(NCC1CCN(C(=O)COc2cccc([C@](O)(C(=O)OCC3CCN(Cc4ccccc4)CC3)c3ccccc3)c2)CC1)c1ccc(CCNC[C@H](O)c2ccc(O)c3[nH]c(=O)ccc23)cc1 < 0.3 nM

Which IC50 is reported for this compound? O=C(COc1cccc([C@](O)(C(=O)OCC2CCN(Cc3ccccc3)CC2)c2ccccc2)c1)N[C@@H]1CCN(C(=O)c2ccc(CNC[C@H](O)c3ccc(O)c4[nH]c(=O)ccc34)cc2)C1 0.3 to 3 nM

Which IC50 is reported for this compound? O=C(N[C@@H]1CCN(C(=O)COc2cccc([C@](O)(C(=O)OCC3CCN(Cc4ccccc4)CC3)c3ccccc3)c2)C1)c1ccc(CNC[C@H](O)c2ccc(O)c3[nH]c(=O)ccc23)cc1 0.3 to 3 nM

Which IC50 is reported for this compound? O=C(NCCCNC[C@H](O)c1ccc(O)c2[nH]c(=O)ccc12)c1ccc(COc2cccc([C@@](O)(C(=O)OCC3CCN(Cc4ccccc4)CC3)c3ccccc3)c2)cc1 < 0.3 nM

Which IC50 is reported for this compound? Cc1ccccc1C(O)(C(=O)OCC1CCN(Cc2ccccc2)CC1)c1cccc(OCCCCCNC[C@H](O)c2ccc(O)c3[nH]c(=O)ccc23)c1 (stereo partly shown) 0.3 to 3 nM

Which IC50 is reported for this compound? COc1cc(CNC[C@H](O)c2ccc(O)c3[nH]c(=O)ccc23)ccc1C(=O)N1CCC2(CCN(C(=O)COc3cccc([C@](O)(C(=O)OCC4CCN(Cc5ccccc5)CC4)c4ccccc4)c3)CC2)CC1 0.3 to 3 nM

Which IC50 is reported for this compound? COc1cc(CNC[C@H](O)c2ccc(O)c3[nH]c(=O)ccc23)ccc1C(=O)NCC(=O)N1CCC(COc2cccc([C@](O)(C(=O)OCC3CCN(Cc4ccccc4)CC3)c3ccccc3)c2)CC1 < 0.3 nM

Which IC50 is reported for this compound? COc1cc(CNC[C@H](O)c2ccc(O)c3[nH]c(=O)ccc23)ccc1C(=O)NCc1ccc(COc2cccc([C@](O)(C(=O)OCC3CCN(Cc4ccccc4)CC3)c3ccccc3)c2)cc1 [Compound 42E] < 0.3 nM

Which IC50 is reported for this compound? O=C(COc1cccc([C@](O)(C(=O)OCC2CCN(Cc3ccccc3)CC2)c2ccccc2)c1)N1C[C@@H]2CCN(C(=O)c3ccc(CCNC[C@H](O)c4ccc(O)c5[nH]c(=O)ccc45)cc3)[C@@H]2C1 < 0.3 nM

Which IC50 is reported for this compound? O=C(COc1cccc([C@](O)(C(=O)OCC2CCN(Cc3ccccc3)CC2)c2ccccc2)c1)N1CCC2(CC1)CN(C(=O)c1ccc(CCNC[C@H](O)c3ccc(O)c4[nH]c(=O)ccc34)cc1)C2 < 0.3 nM

====

# EXPERIMENTAL SYSTEM: Human β2 adrenoceptor (Homo sapiens, UniProt P07550)
# STATED CONDITIONS: read-out: B2 binding affinity
I'd appreciate it if you could supply IC50 values for the items below.

Please state recorded IC50 (tested on Human β2 adrenoceptor (Homo sapiens, UniProt P07550)) of O=C(NCCCOc1cccc([C@](O)(C(=O)OCC2CCN(Cc3ccccc3)CC2)c2ccccc2)c1)c1ccc(CNC[C@H](O)c2ccc(O)c3[nH]c(=O)ccc23)nc1 [Compound 32C] < 300 pM

Please state recorded IC50 (tested on Human β2 adrenoceptor (Homo sapiens, UniProt P07550)) of O=C(c1ccc(COc2cccc([C@](O)(C(=O)OCC3CCN(Cc4ccccc4)CC3)c3ccccc3)c2)cc1)N1CCC2(CC1)CN(C(=O)c1ccc(CCNC[C@H](O)c3ccc(O)c4[nH]c(=O)ccc34)cc1)C2 300 to 3000 pM

Please state recorded IC50 (tested on Human β2 adrenoceptor (Homo sapiens, UniProt P07550)) of O=C(COc1cccc([C@](O)(C(=O)OCC2CCN(Cc3ccccc3)CC2)c2ccccc2)c1)N[C@H]1C[C@H](NC(=O)c2ccc(CCNC[C@H](O)c3ccc(O)c4[nH]c(=O)ccc34)cc2)C1 300 to 3000 pM

Please state recorded IC50 (tested on Human β2 adrenoceptor (Homo sapiens, UniProt P07550)) of O=C(NCC1CCN(C(=O)COc2cccc([C@](O)(C(=O)OCC3CCN(Cc4ccccc4)CC3)c3ccccc3)c2)CC1)c1ccc(CNC[C@H](O)c2ccc(O)c3[nH]c(=O)ccc23)cc1 < 300 pM

Please state recorded IC50 (tested on Human β2 adrenoceptor (Homo sapiens, UniProt P07550)) of O=C(c1ccc(COc2cccc([C@](O)(C(=O)OCC3CCN(Cc4ccccc4)CC3)c3ccccc3)c2)cc1)N1CCC(CNC[C@H](O)c2ccc(O)c3[nH]c(=O)ccc23)CC1 < 300 pM

Please state recorded IC50 (tested on Human β2 adrenoceptor (Homo sapiens, UniProt P07550)) of O=C(COc1cccc([C@](O)(C(=O)OCC2CCN(Cc3ccccc3)CC2)c2ccccc2)c1)NCC(=O)N1CCC(CNC[C@H](O)c2ccc(O)c3[nH]c(=O)ccc23)CC1 < 300 pM

Please state recorded IC50 (tested on Human β2 adrenoceptor (Homo sapiens, UniProt P07550)) of CN1CCC[C@@H](OC(=O)[C@](O)(c2ccccc2)c2cccc(OCCCCCNC[C@H](O)c3ccc(O)c4[nH]c(=O)ccc34)c2)C1 < 300 pM

Please state recorded IC50 (tested on Human β2 adrenoceptor (Homo sapiens, UniProt P07550)) of O=C(COc1cccc([C@](O)(C(=O)OCC2CCN(Cc3ccccc3)CC2)c2ccccc2)c1)N[C@H]1CC[C@H](NC(=O)c2ccc(CNC[C@H](O)c3ccc(O)c4[nH]c(=O)ccc34)cc2)CC1 < 300 pM

Please state recorded IC50 (tested on Human β2 adrenoceptor (Homo sapiens, UniProt P07550)) of O=C(COc1cccc([C@](O)(C(=O)OCC2CCN(Cc3ccccc3)CC2)c2ccccc2)c1)N[C@H]1C[C@H](NC(=O)c2ccc(CNC[C@H](O)c3ccc(O)c4[nH]c(=O)ccc34)c(C(F)(F)F)c2)C1 300 to 3000 pM

Please state recorded IC50 (tested on Human β2 adrenoceptor (Homo sapiens, UniProt P07550)) of CN(C)CCOC(=O)[C@@](O)(c1ccccc1)c1cccc(OCCCCCNC[C@H](O)c2ccc(O)c3[nH]c(=O)ccc23)c1 < 300 pM

Please state recorded IC50 (tested on Human β2 adrenoceptor (Homo sapiens, UniProt P07550)) of CN1CC[C@@H](OC(=O)C(O)(c2ccccc2)c2cccc(C(=O)NCCCCNC[C@H](O)c3ccc(O)c4[nH]c(=O)ccc34)c2)C1 (some centres unmarked) [Compound 49, diformate] < 300 pM

Please state recorded IC50 (tested on Human β2 adrenoceptor (Homo sapiens, UniProt P07550)) of CN1CC[C@@H](OC(=O)[C@@](O)(c2ccccc2)c2cccc(OCCCCCNC[C@H](O)c3ccc(O)c4[nH]c(=O)ccc34)c2)C1 < 300 pM

Please state recorded IC50 (tested on Human β2 adrenoceptor (Homo sapiens, UniProt P07550)) of Cc1cccc(C(O)(C(=O)OCC2CCN(Cc3ccccc3)CC2)c2cccc(OCCCCCNC[C@H](O)c3ccc(O)c4[nH]c(=O)ccc34)c2)c1 (some centres unmarked) 300 to 3000 pM

Please state recorded IC50 (tested on Human β2 adrenoceptor (Homo sapiens, UniProt P07550)) of O=C(NCCCOc1cccc([C@](O)(C(=O)OC[C@@H]2CCN(Cc3ccccc3)C2)c2ccccc2)c1)c1ccc(CNC[C@H](O)c2ccc(O)c3[nH]c(=O)ccc23)cc1 < 300 pM

Please state recorded IC50 (tested on Human β2 adrenoceptor (Homo sapiens, UniProt P07550)) of COc1cc(C(=O)NCCCOc2cccc([C@](O)(C(=O)OCC3CCN(Cc4ccccc4)CC3)c3ccccc3)c2)ccc1CNC[C@H](O)c1ccc(O)c2[nH]c(=O)ccc12 [Compound 32A] < 300 pM

Please state recorded IC50 (tested on Human β2 adrenoceptor (Homo sapiens, UniProt P07550)) of O=C(COc1cccc([C@](O)(C(=O)OCC2CCN(Cc3ccccc3)CC2)c2ccccc2)c1)N[C@H]1CCCN(C(=O)c2ccc(CNC[C@H](O)c3ccc(O)c4[nH]c(=O)ccc34)cc2)C1 300 to 3000 pM

Please state recorded IC50 (tested on Human β2 adrenoceptor (Homo sapiens, UniProt P07550)) of CN1CCC(OC(=O)[C@@](O)(c2ccccc2)c2cccc(OCCCCCNC[C@H](O)c3ccc(O)c4[nH]c(=O)ccc34)c2)CC1 < 300 pM

Please state recorded IC50 (tested on Human β2 adrenoceptor (Homo sapiens, UniProt P07550)) of O=C(COc1cccc([C@](O)(C(=O)OCC2CCN(Cc3ccccc3)CC2)c2ccccc2)c1)NC1CN(C(=O)c2ccc(CCNC[C@H](O)c3ccc(O)c4[nH]c(=O)ccc34)cc2)C1 < 300 pM

Please state recorded IC50 (tested on Human β2 adrenoceptor (Homo sapiens, UniProt P07550)) of COc1cc(CNC[C@H](O)c2ccc(O)c3[nH]c(=O)ccc23)ccc1C(=O)N1CC(NC(=O)COc2cccc([C@](O)(C(=O)OCC3CCN(Cc4ccccc4)CC3)c3ccccc3)c2)C1 300 to 3000 pM

Please state recorded IC50 (tested on Human β2 adrenoceptor (Homo sapiens, UniProt P07550)) of O=C(COc1cccc([C@](O)(C(=O)OCC2CCN(Cc3ccccc3)CC2)c2ccccc2)c1)N[C@H]1C[C@H](NC(=O)c2ccc(CNC[C@H](O)c3ccc(O)c4[nH]c(=O)ccc34)cn2)C1 < 300 pM
